biological target: GSK3β (Homo sapiens, UniProt P49841); test: GSK3β kinase assay (Caliper LabChip3000, fluoresceinated peptide substrate); type: biochemical
Sequence (P49841 whole entry, species assumed): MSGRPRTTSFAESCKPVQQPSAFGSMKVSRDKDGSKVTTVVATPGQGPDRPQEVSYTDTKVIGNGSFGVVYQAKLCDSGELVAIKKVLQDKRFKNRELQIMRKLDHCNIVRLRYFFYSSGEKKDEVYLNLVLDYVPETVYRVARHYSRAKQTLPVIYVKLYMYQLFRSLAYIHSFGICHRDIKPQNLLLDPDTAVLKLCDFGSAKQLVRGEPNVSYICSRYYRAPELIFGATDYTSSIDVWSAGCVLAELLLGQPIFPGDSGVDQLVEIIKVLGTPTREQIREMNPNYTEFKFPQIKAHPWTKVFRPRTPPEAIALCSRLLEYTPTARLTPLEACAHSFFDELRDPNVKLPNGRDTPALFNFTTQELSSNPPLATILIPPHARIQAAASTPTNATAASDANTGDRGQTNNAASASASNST
readout: IC50 (nM)
Please reply with the bare figure in nM and do not write the unit itself.

See these solved cases before continuing.
INSERT INTO assay_data (molecule, unit_of_measure, readout_number) VALUES
  ('CC(C)(C)C(=O)Nc1cc(C(=O)Nc2cncc(-c3cccc(F)c3F)c2)ccn1', 'nM', 24),
  ('C[C@@H]1CN(c2ccncc2NC(=O)c2ccnc(NC(=O)C3CC3)c2)C[C@H](C)O1', 'nM', 14),
  ('O=C(Nc1cncc(-c2cccc(F)c2F)c1)c1ccnc(NC(=O)C2CC2)c1', 'nM', 3.4),
  ('C[C@@H]1COCCN1c1ccncc1NC(=O)c1ccnc(NC(=O)C2CC2)c1', 'nM', 0.49);

Consider now this further molecule.
Briefly, IC50 measured for O=C(Nc1cnccc1C(O)C(F)(F)F)c1ccnc(NC(=O)C2CC2)c1 (centres unmarked) : 5.8

* * *

molecular target: UniProt P49841; assay: GSK3β kinase assay (Caliper LabChip3000, fluoresceinated peptide substrate); assay type: biochemical
pIC50: −log10 of the molar value.
Classify by measured pIC50: Fulfilled if it is equal to or exceeds 8, Not fulfilled if it is smaller.

INSERT INTO measurements (compound, group) VALUES
  ('CCOc1ccncc1NC(=O)c1ccnc(NC(=O)C2CCCC2)c1', 'Fulfilled'),
  ('O=C(Nc1cncc(-c2ccncc2)c1)c1ccnc(NC(=O)C2CC2)c1', 'Fulfilled'),
  ('O=C(Nc1cncc(-c2ccccc2)c1)c1ccnc(NC(=O)C2CC2)c1', 'Fulfilled');

Problem: Hi, just wondering whether Cc1ccc(-c2cncc(NC(=O)c3ccnc(NC(=O)C4CC4)c3)c2)cn1 shows pIC50 of 8 or higher.
Solution: Fulfilled

Problem: Hi, just wondering whether CC(=O)c1ccncc1NC(=O)c1ccnc(NC(=O)C2CC2)c1 shows pIC50 of 8 or higher.
Solution: Fulfilled

Problem: Hi, just wondering whether O=C(Nc1cncc(-c2cncc(Cl)c2)c1)c1ccnc(NC(=O)C2CC2)c1 shows pIC50 of 8 or higher.
Solution: Fulfilled

* * *

tested on: pTau; assay: pTau assay (method not described); assay type: cell-based; details: read-out: pTau
readout: pIC50
Friendly reminder that pIC50 comes from taking -log10 of the concentration in mol/L.

See these solved cases before continuing.
INSERT INTO results (compound, readout_number) VALUES
  ('O=C(Nc1cncc(F)c1)c1ccnc(NC(=O)C2CC2)c1', 5.85),
  ('Cn1c(-c2ccncc2NC(=O)c2ccnc(NC(=O)C3CC3)c2)cc2ccccc21', 7.18),
  ('O=C(Nc1cncc(-c2ccc(F)cc2)c1)c1ccnc(NC(=O)C2CC2)c1', 6.24),
  ('O=C(Nc1cncc(-c2ccccc2F)c1)c1ccnc(NC(=O)C2CCC(F)(F)C2)c1 (stereo not drawn)', 6.80);

Measured pIC50 for this entry O=C(Nc1cncc(-c2ccnc(F)c2F)c1)c1ccnc(NC(=O)C2CC2)c1 on pTau: 6.44

* * *

Known IC50 of a selection of compounds
Target: GSK3β (Homo sapiens)
Test: GSK3β kinase assay (Caliper LabChip3000, fluoresceinated peptide substrate)
Format: biochemical
Details: first value of the cell; 250 pM enzyme, 20 uM ATP, 20 hours at room temperature; read-out: GSK3β/α (nM): GSK3β IC50
Experimental: The kinase assay was performed in V-bottom 384-well plates. […] The reaction was incubated at room temperature for 20 hours and terminated by adding 45 μl of 35 mM EDTA to each sample. The reaction mixture was analyzed on the Caliper LabChip3000 (Caliper, Hopkinton, Mass.) by electrophoretic separation of the unphosphorylated substrate and phosphorylated product. […] Compounds were dissolved at 10 mM in dimethylsulfoxide (DMSO) and evaluated at eleven concentrations. […]
Please reply with the bare figure in nM and do not write the unit itself.

See these solved cases before continuing.
INSERT INTO assay_data (compound, readout, unit_of_measure, readout_number) VALUES
  ('O=C(Nc1cncc(-c2ccsc2)c1)c1ccnc(NC(=O)C2CC2)c1 [Example 117]', 'IC50', 'nM', 1.2),
  ('Cn1cc(-c2cncc(NC(=O)c3ccnc(NC(=O)C4CC4)c3)c2)cn1 [Example 152]', 'IC50', 'nM', 4.9),
  ('N#Cc1cscc1-c1cncc(NC(=O)c2ccnc(NC(=O)C3CC3)c2)c1 [Example 131]', 'IC50', 'nM', 0.41),
  ('O=C(Nc1cnn(CC(F)(F)F)c1)c1ccnc(NC(=O)C2CC2)c1 [Example 172]', 'IC50', 'nM', 35),
  ('O=C(Nc1cncc(-c2cc(Cl)ccc2F)c1)c1ccnc(NC(=O)C2CC2)c1 [Example 153]', 'IC50', 'nM', 5.3);

Briefly, IC50 measured for O=C(Nc1cnccc1-c1cc(Br)cc(Br)c1)c1ccnc(NC(=O)C2CC2)c1 [Example 167] : 20

Briefly, IC50 measured for CC(C)c1ccc(-c2ccncc2NC(=O)c2ccnc(NC(=O)C3CC3)c2)cc1 [Example 75] : 30

* * *

system: pTau; assay: pTau assay (method not described); format: cell-based; details: read-out: pTau
pIC50: −log10 of the molar value.
Classify by measured pIC50: Criterion met if it is equal to or exceeds 7, Criterion not met if it is smaller.

Answered cases to consult:
INSERT INTO measurements (smiles_data, group) VALUES
  ('Cc1ccncc1NC(=O)c1ccnc(NC(=O)C2CC2)c1', 'Criterion not met'),
  ('O=C(Nc1cnccc1-c1ccc(C(F)(F)F)cc1Cl)c1ccnc(NC(=O)C2CC2)c1', 'Criterion not met'),
  ('CCC1(c2cc(Cl)ncc2NC(=O)c2ccnc(NC(=O)C(C)C)c2)OCCO1', 'Criterion met'),
  ('O=C(Nc1cncs1)c1ccnc(NC(=O)C2CC2)c1', 'Criterion not met');

Problem: Hi, just wondering whether O=C(Nc1cnccc1-c1ccc(C(F)(F)F)cc1F)c1ccnc(NC(=O)C2CC2)c1 shows pIC50 of 7 or higher.
Solution: Criterion not met

Problem: Hi, just wondering whether Cc1c(NC(=O)c2ccnc(NC(=O)C3CC3)c2)cnn1C shows pIC50 of 7 or higher.
Solution: Criterion not met

* * *

target: GSK3α (Homo sapiens); assay: biochemical; conditions: second value of the cell; 250 pM enzyme, 20 uM ATP, 20 hours at room temperature; read-out: GSK3β/α (nM): GSK3α IC50
Sequence (P49840 whole entry, species assumed): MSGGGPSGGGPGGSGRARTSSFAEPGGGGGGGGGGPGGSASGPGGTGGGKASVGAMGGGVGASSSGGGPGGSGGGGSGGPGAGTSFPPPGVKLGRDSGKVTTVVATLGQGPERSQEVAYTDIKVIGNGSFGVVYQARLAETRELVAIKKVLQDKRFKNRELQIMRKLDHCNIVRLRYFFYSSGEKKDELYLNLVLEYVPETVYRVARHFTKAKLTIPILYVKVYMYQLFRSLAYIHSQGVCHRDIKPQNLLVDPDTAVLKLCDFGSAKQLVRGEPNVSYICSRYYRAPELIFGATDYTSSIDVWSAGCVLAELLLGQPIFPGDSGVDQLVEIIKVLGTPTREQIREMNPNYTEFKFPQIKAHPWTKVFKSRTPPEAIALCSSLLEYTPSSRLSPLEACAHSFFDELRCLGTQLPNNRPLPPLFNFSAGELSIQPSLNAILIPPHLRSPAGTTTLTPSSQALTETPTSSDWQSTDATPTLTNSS
// NB: equality with 3 nM counts as class 0; only IC50 strictly below is class 1

Problem: Bench note: check whether CC(C)C(=O)Nc1cc(C(=O)Nc2cnccc2-c2ccc(Cl)cc2)ccn1 [Example 186] shows IC50 below 3 nM
Solution: class 0

* * *

biological target: GSK3α (Homo sapiens); assay: biochemical; settings: second value of the cell; 250 pM enzyme, 20 uM ATP, 20 hours at room temperature; read-out: GSK3β/α (nM): GSK3α IC50
readout: log10(IC50) (log10 of the value in nM)
Values are log10 of IC50 in nM.

See these solved cases before continuing.
INSERT INTO results (compound, readout_number) VALUES
  ('O=C(Nc1cnccc1-c1cc2ccccc2o1)c1ccnc(NC(=O)C2CC2)c1', 0.15),
  ('CC(C)(F)C(=O)Nc1cc(C(=O)Nc2cnccc2-c2ccccc2)ccn1', 1.72),
  ('O=C(Nc1ccc(-c2ccccc2)nc1)c1ccnc(NC(=O)C2CC2)c1', 1.81),
  ('O=C(O)c1cncc(NC(=O)c2ccnc(NC(=O)C3CC3)c2)c1', 2.08),
  ('CC(C)C(=O)Nc1cc(C(=O)Nc2cncc(-c3cccc(F)c3F)c2)ccn1', 0.15),
  ('O=C(Nc1cnccc1-c1ccc(Br)cc1)c1ccnc(NC(=O)C2CC2)c1', 0.34);

Measured log10(IC50) for this entry CCC1(c2cc(Cl)ncc2NC(=O)c2ccnc(NC(=O)C(C)(C)C)c2)OCCO1 on GSK3α (Homo sapiens): 0.11

Measured log10(IC50) for this entry O=C(Nc1cncc(-c2cccc(Cl)c2F)c1)c1ccnc(NC(=O)C2CC2)c1 on GSK3α (Homo sapiens): 0.45

Measured log10(IC50) for this entry O=C(Nc1cncc(-c2ccccc2)c1)c1ccnc(NC(=O)C2CCCC2)c1 on GSK3α (Homo sapiens): -0.29

Measured log10(IC50) for this entry Cc1cc(-c2ccncc2NC(=O)c2ccnc(NC(=O)C3CC3)c2)cs1 on GSK3α (Homo sapiens): -0.07

Measured log10(IC50) for this entry CC(C)C(=O)Nc1cc(C(=O)Nc2cnccc2C(F)c2ccccc2)ccn1 (centres unmarked) on GSK3α (Homo sapiens): 1.08

Measured log10(IC50) for this entry Cn1ccc(-c2cncc(NC(=O)c3ccnc(NC(=O)C4CC4)c3)c2)c1 on GSK3α (Homo sapiens): 0.49

Measured log10(IC50) for this entry CC(=O)c1ccncc1NC(=O)c1ccnc(NC(=O)C2CC2)c1 on GSK3α (Homo sapiens): -0.27

Measured log10(IC50) for this entry CN(C)Cc1ccccc1-c1cncc(NC(=O)c2ccnc(NC(=O)C3CC3)c2)c1 on GSK3α (Homo sapiens): 2.23

Measured log10(IC50) for this entry O=C(Nc1cncc(-c2cc(F)ccc2F)c1)c1ccnc(NC(=O)C2CCC(F)(F)C2)c1 (centres unmarked) on GSK3α (Homo sapiens): 0.32

Measured log10(IC50) for this entry O=C(Nc1cncc(-c2cncc(Cl)c2)c1)c1ccnc(NC(=O)C2CC2)c1 on GSK3α (Homo sapiens): 0.20
